Origin of values: the nanobody polyreactivity screen of Harvey et al. (2022)

# Protocol Description: yeast display, Sf9 membrane polyspecificity reagent, FACS + sequencing; frameworks hold sequencing errors
Readout Kind: polyreactivity (PSR sort gate)

Previously resolved entries follow.
IN: Recall and state the measured polyreactivity (PSR sort gate) for QVQLVESGGGLVQAGGSLRLSCAASGRIFQWYAMGWYRQAPGKERELVAAISWRDGRTYYADSVKGRFTISRDNAKNNVYLQMNSLKPEDTAVYYCAVRTFGRYGYWGQGTQVTVSS .
OUT: high polyreactivity

IN: Item QVQLQESAGGLVQAGGSLRRSCAASGSIFSNCAMGWYRQTPGKERELVASITAGGNNNYADSVKGRFTISRDNAKNTVYLPMNSLKPEETAVYYCNRRYPGPDSFEHYYYYRYDYWGQGTQVTVSS : provide polyreactivity (PSR sort gate)
OUT: low polyreactivity

IN: Consider the sequence QVQLVESGGGLVQAGGSLRLSCAASGIIFPYYAMGWYRQAPGKERELVARITRRGGSTYYADSVKGRFTISRDNAKNTVYLQMNSLKPEDTAVYYCAAYAPYYRTMEYWGQGTQVTLSS . State its measured polyreactivity (PSR sort gate).
OUT: high polyreactivity

IN: Let me know recorded polyreactivity (PSR sort gate) for QVHLVESGGGLVQAGGSLRLSFAASGRTFLRYDMGCYIQAPGKERELVAADSVKGRFTISRDNAKNTVYLQMNSLKAEDPAVYYCAADSTEYTGDASYIGYDYWGQGTHVTVSS , thanks.
OUT: high polyreactivity

IN: Identify measured polyreactivity (PSR sort gate) corresponding to QVQLVESGGGLVQAGGSLRLSCADSGSIFSPYAMGWYRQAPGKERELVAAITNSGGRTYYADSVKGRFTISRDNAKNTVYLQMNSLKPEDTAVYYCNADYGKHHPDYYYWGQGTQVTVSS
OUT: low polyreactivity

IN: Look up polyreactivity (PSR sort gate) of HAQLQESGVGLVQAGGSLRRSCAASGSIFRFSGMGWYRRATGKERELVASIGFGSITYYADRVKVRFTISRDNANNTVYLQMTSLKPEDTAVYYCAVQVQDESWLDYWGQGTQVTVSC and report it.
OUT: low polyreactivity

Hi, could you look up polyreactivity (PSR sort gate) for each item in my list?
1. QVQLVESGGGLVHAGRSLRLSCAASGFIFVRNAMGWYRQAPGKERELVAAITRSGGSTSYADSVKGRFTISRDNEKNTVYLQMNSLKPEDTAVYYCAAQYGYWGQGTQVTVSS
2. QVQLVESGGGLVPAGGSLRLSCAASGSIFKINAMGWYRQAPGKERELVATITWSTGTTYYADSVKGRFTISRDNAKNTVYLQMNSLKPEDTAVYYCATDGDSTKLDYWGQGTQVTVSS
3. QVQLVESGGGLVQAGGSIRLTCAASGSIFYHYAMGWYRQAPAKERELVADITQSGGTTDYADSVKGRFTISRDNAKNTVYLQMNSLKTEDTAVYYCAADGDTTSPTYYIFWYGEFDYCGQGTQVTVSS
4. QVQLEESGGGLVQAGGSLRLSCAASGSIFVGYDMGWYRQAPGKVWELVAAITSSGVGSTYYADSVKGRFTISRDNAKNTVYLQMNSLKPEDTAVYYCAARTSLWWFLKYDYWGEGTQVTVSS
5. QVQLVESGGGLVQAGGSLRLSCAASGRIFRYYAMGWYRQAPGKERELVAAISWSGSSTYYADSVKGRFTISRDNAKNTVFLQMNSLKPEDTAVYYCDALILSKSEYYWGQGTQVSVSS
6. QVQLVESGGGLVQAGGSLRLSCAASGRIFEFNAMGRYIQAPGKERELVARISYSGGSTYYADSLKGRFTISRDNAKNTVYLQMNSLKPEDTAVYYCAAKPSRYFYNAWGYRQVYQYDYWGQGTQVTVSS

OUT:
1. high polyreactivity
2. low polyreactivity
3. low polyreactivity
4. low polyreactivity
5. high polyreactivity
6. high polyreactivity

For every record below, what is its polyreactivity (PSR sort gate)?
1. QVQLVESGGGLVQAGGSLRLSCAASGNTFPVYAMGWYRQASGKERELVATITSGGSTNYADSVKGRFTISRDNAKNTVYLQMNSLKQEDTAVYYCARRAVYSKRRYDYWGQGTQVTVSS
2. QVQLVESGGGLVQAGGSLRLSCAASGFTFLTYAMGWYRQAPGKERELVAAIDSGDSTKYADSVKGRFTISLDNAKNTVYLQMNSLKPEDTAVYYCNASRRYHVRAPYDYWGQGTQVTVSS
3. QVQLVESGGGLVQAGGSLRLSCAASGRIFSWNTMGWYRQAPGKERELVAAISSSDGSTYYADSVKGRFTISRDNAKNTVYLQMNSVKPEDTAVYYCNKVVSRWNQRWRYSEGNYWGQGTQVTVSS
4. QVQLVESGGGLVQAGGSLRLSCAASGFTFYVYTMGWYRQAPGKERELVAAITWSGGSTYYADSVKGRFTISRDNAKNNVYLQMNSLKPEDTAVYYCNRVGYWVGHDSWGQGTQVTVSS
5. QVQLEESGGGLCQAGGSLRLSCAPSGSIFVSNAMVCYRQAPGKERELVAAITYNGGRTFYADSVKGRFTISRDNAKNTVYLQLNSLKPEDTAVYYFAADGSWHGYGYWGQGTQVTVSS

OUT:
low polyreactivity
low polyreactivity
high polyreactivity
high polyreactivity
low polyreactivity
